Test system: MS2 coat protein
Test: apparent KD of MS2 coat protein; higher = weaker reporter binding
Details: Eterna round: R107; input ligand: arginine 13.2 mM
attribute.measured: apparent KD of MS2 coat protein (nM)
The response must be a number in nM with no trailing unit.

Use the examples below as a reference point.
GAGCACAUGAGGAUCACCCAUGUUGGCACACGAGGACCGGUACGGCCGCCACUCGCGGCGGGAAUAACUUUGCGCAGAUGAUGGG [theeternabot_sameState_MS2_Trp_A_50]	27.5
UGUGUAAUUGUCUGGUAGAUUUAUUUUUUUCGAGGACCGGUACGGCCGCCACUCGUUAUUUACAUGAGGAUCACCCAUGUUAGCU [JR_ExcTryptoA_Sub007]	12.4

Let us examine a further case.
apparent KD of MS2 coat protein reading for UACAUGAGGAUCACCCAUGUAUGAAUGGAUACCAGAUAAAAUAAGGUCCCUUGGCAGCUAGUGAAUCGAGGGUGGGUAUCAUGUU [#14 Exclusion-TheophyllineA] : 10.9
